experiment: Drug uptake in mouse serum at 600 mg/kg, po measured at 45 mins by UPLC-MS/MS method; format: ADME, organism-based; settings: read-out: Drug uptake
property_name: concentration at 0.75 h (µM)
// return numeric value only (unit: µM, not printed)

Ask: Please supply the value of reported concentration at 0.75 h for the item "CC(=O)O[C@H]1C[C@H]2[C@@H]([C@H](OC(C)=O)C[C@@H]3C[C@H](N)CC[C@@]32C)[C@@H]2CC[C@H]([C@H](C)CCCNCCCCNc3ccnc4cc(Cl)ccc34)[C@@]12C"
Reply: 3.1

---

assay: Drug uptake in mouse serum at 400 mg/kg, po measured at 30 mins by UPLC-MS/MS method; type: ADME, organism-based; conditions: read-out: Drug uptake
property_name: concentration at 0.5 h (µM)
// return numeric value only (unit: µM, not printed)

Ask: Please supply the value of reported concentration at 0.5 h for the item "CC(=O)O[C@H]1C[C@H]2[C@@H]([C@H](OC(C)=O)C[C@@H]3C[C@H](N)CC[C@@]32C)[C@@H]2CC[C@H]([C@H](C)CCCNCCCCNc3ccnc4cc(Cl)ccc34)[C@@]12C"
Reply: 4

---

assay: Apparent permeability across basolateral to apical side in MDCK cells expressing MDR1 after 1 hr; type: ADME, cell-based, Canis lupus familiaris; details: dog
property_name: Papp
Just so you know, I need the unit written after the number.

Ask: Please supply the value of reported Papp for the item "CC(=O)O[C@H]1C[C@H]2[C@@H]([C@H](OC(C)=O)C[C@@H]3C[C@H](N)CC[C@@]32C)[C@@H]2CC[C@H]([C@H](C)CCCNCCCCNc3ccnc4cc(Cl)ccc34)[C@@]12C"
Reply: 24.6 ×10⁻⁶ cm/s

---

biological target: UniProt P08684; experiment: Inhibition of CYP3A4 (unknown origin) using DBF as substrate; format: ADME
property_name: pIC50
Please express pIC50 as -log10 of the molar concentration.

Ask: Please supply the value of reported pIC50 for the item "CC(=O)O[C@H]1C[C@H]2[C@@H]([C@H](OC(C)=O)C[C@@H]3C[C@H](N)CC[C@@]32C)[C@@H]2CC[C@H]([C@H](C)CCCNCCCCNc3ccnc4cc(Cl)ccc34)[C@@]12C"
Reply: 5.92

---

property_name: IC50

Ask: Determine reported IC50 for "CC(=O)O[C@H]1C[C@H]2[C@@H]([C@H](OC(C)=O)C[C@@H]3C[C@H](N)CC[C@@]32C)[C@@H]2CC[C@H]([C@H](C)CCCNCCCCNc3ccnc4cc(Cl)ccc34)[C@@]12C" ; test system: Cytochrome P450 2D6 (Homo sapiens, UniProt P10635).
Sequence (P10635 whole entry): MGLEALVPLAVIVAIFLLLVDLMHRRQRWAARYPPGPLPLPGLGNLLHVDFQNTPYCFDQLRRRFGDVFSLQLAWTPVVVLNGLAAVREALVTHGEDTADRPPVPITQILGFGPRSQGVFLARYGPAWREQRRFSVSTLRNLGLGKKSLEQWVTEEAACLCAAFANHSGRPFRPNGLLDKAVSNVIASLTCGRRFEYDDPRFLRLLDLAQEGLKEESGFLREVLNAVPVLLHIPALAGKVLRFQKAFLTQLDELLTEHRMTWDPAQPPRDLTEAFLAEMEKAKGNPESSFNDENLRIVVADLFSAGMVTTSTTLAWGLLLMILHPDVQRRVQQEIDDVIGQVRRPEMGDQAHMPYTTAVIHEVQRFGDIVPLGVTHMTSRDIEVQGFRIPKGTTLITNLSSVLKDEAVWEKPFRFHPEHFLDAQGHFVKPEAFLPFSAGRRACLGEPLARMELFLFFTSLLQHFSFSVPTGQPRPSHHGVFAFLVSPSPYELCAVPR
Reply: > 10 µM

---

test: Drug uptake in mouse serum at 600 mg/kg, po measured at 120 mins by UPLC-MS/MS method; type: ADME, organism-based; conditions: read-out: Drug uptake
property_name: concentration at 2 h (nM)
// return numeric value only (unit: nM, not printed)

Ask: Please supply the value of reported concentration at 2 h for the item "CC(=O)O[C@H]1C[C@H]2[C@@H]([C@H](OC(C)=O)C[C@@H]3C[C@H](N)CC[C@@]32C)[C@@H]2CC[C@H]([C@H](C)CCCNCCCCNc3ccnc4cc(Cl)ccc34)[C@@]12C"
Reply: 2400

---

assay: Protein binding in mouse plasma at 400 mg/kg, po by ultra-centrifugation method; assay type: ADME, organism-based; details: read-out: PPB
property_name: fraction unbound

Ask: Please supply the value of reported fraction unbound for the item "CC(=O)O[C@H]1C[C@H]2[C@@H]([C@H](OC(C)=O)C[C@@H]3C[C@H](N)CC[C@@]32C)[C@@H]2CC[C@H]([C@H](C)CCCNCCCCNc3ccnc4cc(Cl)ccc34)[C@@]12C"
Reply: < 0.01

---

target: Cytochrome P450 3A4 (Homo sapiens, UniProt P08684); test: Inhibition of CYP3A4 (unknown origin) using BQ as substrate; assay type: ADME
Sequence (P08684 whole entry): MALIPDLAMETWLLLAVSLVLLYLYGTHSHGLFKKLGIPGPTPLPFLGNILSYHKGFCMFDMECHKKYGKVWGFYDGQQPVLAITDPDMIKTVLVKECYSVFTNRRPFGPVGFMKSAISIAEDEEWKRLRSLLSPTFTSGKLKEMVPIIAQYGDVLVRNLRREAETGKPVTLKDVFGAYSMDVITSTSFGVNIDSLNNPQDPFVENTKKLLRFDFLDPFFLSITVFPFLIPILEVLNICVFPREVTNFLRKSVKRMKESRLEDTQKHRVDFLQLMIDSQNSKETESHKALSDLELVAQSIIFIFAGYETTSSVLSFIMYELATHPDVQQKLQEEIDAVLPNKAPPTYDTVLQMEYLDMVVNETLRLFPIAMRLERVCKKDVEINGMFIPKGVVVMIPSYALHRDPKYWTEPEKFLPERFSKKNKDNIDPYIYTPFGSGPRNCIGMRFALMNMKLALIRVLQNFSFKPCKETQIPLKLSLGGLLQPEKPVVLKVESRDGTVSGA
property_name: pIC50
Please express pIC50 as -log10 of the molar concentration.

Ask: Please supply the value of reported pIC50 for the item "CC(=O)O[C@H]1C[C@H]2[C@@H]([C@H](OC(C)=O)C[C@@H]3C[C@H](N)CC[C@@]32C)[C@@H]2CC[C@H]([C@H](C)CCCNCCCCNc3ccnc4cc(Cl)ccc34)[C@@]12C"
Reply: 5.96

---

Would you mind telling me the reported log10(IC50) of each entry?
biological target: Botulinum neurotoxin type A (Clostridium botulinum, UniProt P0DPI0); test: Inhibition of Clostridium botulinum BoNT/A light chain using P39 as substrate preincubated for 10 mins followed by substrate addition measured after 10 mins by HPLC method
Use the decimal logarithm of IC50 (µM).

Ask: Please supply the value of reported log10(IC50) for the item CC(CCCNCc1ccc(-c2csc3ccc(C#N)cc23)cc1)Nc1ccnc2ccccc12 (centres undefined)
Reply: 1.01

Ask: Please supply the value of reported log10(IC50) for the item CC(CCN(C)CC12CC3CC(CC(C3)C1)C2)Nc1ccnc2cc(Cl)ccc12 (centres undefined)
Reply: 1.07

Ask: Please supply the value of reported log10(IC50) for the item CC(CCCNCc1ccc(-c2csc3ccc(F)cc23)cc1)Nc1ccnc2ccccc12 (centres undefined)
Reply: 0.94

Ask: Please supply the value of reported log10(IC50) for the item CC(=O)O[C@H]1C[C@H]2[C@@H]([C@H](OC(C)=O)C[C@@H]3C[C@H](N)CC[C@@]32C)[C@@H]2CC[C@H]([C@H](C)CCCNC(C)CCCNc3ccnc4ccccc34)[C@@]12C (mixture of isomers)
Reply: 0.48

Ask: Please supply the value of reported log10(IC50) for the item "CN(CCCNc1ccnc2cc(Cl)ccc12)CC12CC3CC(CC(C3)C1)C2"
Reply: 0.94

Ask: Please supply the value of reported log10(IC50) for the item "N#Cc1ccc(-c2ccc(-c3ccc(CNCCCCCCCCNc4ccnc5ccccc45)cc3)s2)cc1"
Reply: 0.83

Ask: Please supply the value of reported log10(IC50) for the item "N#Cc1ccc2scc(-c3ccc(CNCCCCNc4ccnc5ccccc45)cc3)c2c1"
Reply: 0.66

Ask: Please supply the value of reported log10(IC50) for the item CC(CCN(C)CC12CC3CC(CC(C3)C1)C2)Nc1ccnc2ccccc12 (centres undefined)
Reply: 0.72

Ask: Please supply the value of reported log10(IC50) for the item "N#Cc1ccc(-c2ccc(-c3cccc(CNCCCCCCNc4ccnc5ccccc45)c3)s2)cc1"
Reply: 0.94

Ask: Please supply the value of reported log10(IC50) for the item "N#Cc1ccc(-c2ccc(-c3ccc(CNCCCCCCNc4ccnc5ccccc45)cc3)s2)cc1"
Reply: 0.53

Ask: Please supply the value of reported log10(IC50) for the item "CC(=O)O[C@H]1C[C@H]2[C@@H]([C@H](OC(C)=O)C[C@@H]3C[C@H](N)CC[C@@]32C)[C@@H]2CC[C@H]([C@H](C)CCCN(C)CCCCNc3ccnc4ccccc34)[C@@]12C"
Reply: 0.18

Ask: Please supply the value of reported log10(IC50) for the item CC(CCCNc1ccnc2ccccc12)NCc1ccc(-c2csc3ccc(F)cc23)cc1 (centres undefined)
Reply: 0.87

Ask: Please supply the value of reported log10(IC50) for the item CC(CCNc1ccnc2cc(Cl)ccc12)NCC12CC3CC(CC(C3)C1)C2 (centres undefined)
Reply: 0.43

Ask: Please supply the value of reported log10(IC50) for the item CC(=O)O[C@H]1C[C@H]2[C@@H]([C@H](OC(C)=O)C[C@@H]3C[C@H](N)CC[C@@]32C)[C@@H]2CC[C@H]([C@H](C)CCCN(C)CCCC(C)Nc3ccnc4ccccc34)[C@@]12C (mixture of isomers)
Reply: -0.15

---

test: Distribution co-efficient, log D of the compound at pH 10 by reversed-phase thin-layer chromatographic method; assay type: physicochemical; conditions: buffer
property_name: chromatographic logD
Just the number, please, no unit after it.

Ask: Please supply the value of reported chromatographic logD for the item CC(CCCNCc1ccc(-c2csc3ccc(C#N)cc23)cc1)Nc1ccnc2ccccc12 (centres undefined)
Reply: 3.67

Ask: Please supply the value of reported chromatographic logD for the item CC(CCNCC12CC3CC(CC(C3)C1)C2)Nc1c(F)cnc2ccccc12 (centres undefined)
Reply: 3.09

Ask: Please supply the value of reported chromatographic logD for the item CC(CCNCC12CC3CC(CC(C3)C1)C2)Nc1c(F)cnc2cc(Cl)ccc12 (centres undefined)
Reply: 3.24

Ask: Please supply the value of reported chromatographic logD for the item CC(CCCNc1ccnc2ccccc12)NCc1ccc(-c2csc3ccc(F)cc23)cc1 (centres undefined)
Reply: 3.85

Ask: Please supply the value of reported chromatographic logD for the item CC(CCNc1ccnc2cc(Cl)ccc12)NCC12CC3CC(CC(C3)C1)C2 (centres undefined)
Reply: 3.4

Ask: Please supply the value of reported chromatographic logD for the item CC(CCNCCC12CC3CC(CC(C3)C1)C2)Nc1c(F)cnc2cc(Cl)ccc12 (centres undefined)
Reply: 4.33

Ask: Please supply the value of reported chromatographic logD for the item CC(CCCN(C)Cc1ccc(-c2csc3ccc(C#N)cc23)cc1)Nc1ccnc2ccccc12 (centres undefined)
Reply: 3.42

Ask: Please supply the value of reported chromatographic logD for the item "CN(CCCCNc1ccnc2ccccc12)Cc1ccc(-c2csc3ccc(F)cc23)cc1"
Reply: 3.98

Ask: Please supply the value of reported chromatographic logD for the item CC(CCCNCc1ccc(-c2csc3ccc(F)cc23)cc1)Nc1ccnc2ccccc12 (centres undefined)
Reply: 3.98

Ask: Please supply the value of reported chromatographic logD for the item "N#Cc1ccc2scc(-c3ccc(CNCCCCNc4ccnc5ccccc45)cc3)c2c1"
Reply: 3.67

Ask: Please supply the value of reported chromatographic logD for the item "N#Cc1ccc2scc(-c3ccc(CNCCCCCCNc4ccnc5ccccc45)cc3)c2c1"
Reply: 3.85

Ask: Please supply the value of reported chromatographic logD for the item CC(CCNCCC12CC3CC(CC(C3)C1)C2)Nc1c(F)cnc2ccccc12 (centres undefined)
Reply: 4.13

Ask: Please supply the value of reported chromatographic logD for the item CC(CCN(C)CC12CC3CC(CC(C3)C1)C2)Nc1ccnc2cc(Cl)ccc12 (centres undefined)
Reply: 3.47

Ask: Please supply the value of reported chromatographic logD for the item "CN(CCCNc1ccnc2cc(Cl)ccc12)CC12CC3CC(CC(C3)C1)C2"
Reply: 3.24
